System: LOX IMVI melanoma
protocol_details: NCI tumour cell line growth inhibition, 48 h
Record form. Attribute: TGI. Fill in for each entry.

**Q:** Kindly state the measured TGI obtained for COc1ccc2nc3ccccc3c(NCCN(C)CCCl)c2c1 with LOX IMVI melanoma.
**A:** 1.77 µM

**Q:** Kindly state the measured TGI obtained for O=c1c2ccccc2nc2n1CCc1c-2[nH]c2ccc(Br)cc12 with LOX IMVI melanoma.
**A:** > 100 µM

**Q:** Kindly state the measured TGI obtained for COc1cc(-c2nc3ccc(C)cc3[nH]2)ccc1OCC(=O)N=Nc1c(O)[nH]c2ccc(Cl)cc12 with LOX IMVI melanoma.
**A:** 1.01 µM

**Q:** Kindly state the measured TGI obtained for Nc1ncnc2c1ncn2C1OC(CSCc2ccc(Cl)cc2)C(O)C1O (stereo unspecified) with LOX IMVI melanoma.
**A:** > 100 µM

**Q:** Kindly state the measured TGI obtained for COc1ccc(=[O+]C)c2nssc1-2 with LOX IMVI melanoma.
**A:** > 100 µM

**Q:** Kindly state the measured TGI obtained for COc1ccc(CCn2c3c(c4c(O)cccc42)C(=O)c2ccccc2-3)cc1OC with LOX IMVI melanoma.
**A:** > 73.3 µM
